Reported double positive events values for a set of compounds
Experiment: inhibitors of CD8+ T cell-vesicle binding, pilot screen, LFA-1/ICAM-1 modulator project, MLPCN validation set, flow cytometry (AID 2523)
Conditions: 2C mouse CD8+ T cells, at 7 µM, stronger effect = lower value; measured here: CD8+/vesicle+ event percentage
assay_endpoint: double positive events (%)

>  <compound>
CCNC(=S)Nc1ccc(OC(F)(F)F)cc1

>  <measured_result>
60.6

$$$$
>  <compound>
COc1ccc(C)cc1S(=O)(=O)Nc1ccc(F)cc1

>  <measured_result>
64.5

$$$$
>  <compound>
Oc1ccc(Oc2ncc(Cl)cc2Cl)cc1

>  <measured_result>
61.9

$$$$
>  <compound>
CC(=O)CCc1oc2ccccc2c1-c1ccccc1

>  <measured_result>
62.1

$$$$
>  <compound>
CC1(C)Cc2ccccc2C(C(Cc2ccccc2)C(N)=O)=N1 (configuration not stated)

>  <measured_result>
51

$$$$
>  <compound>
Cc1ccc2c(c1)c1c(n2C)C(=O)CCC1

>  <measured_result>
57.6

$$$$
>  <compound>
CCOc1ccccc1C(=O)NCCC(=O)O

>  <measured_result>
60.3

$$$$

* * *

Test: modulators of CIT2-GFP expression in yeast, primary screen, S. cerevisiae, GFP fusion, multiplex flow cytometry (AID 1870);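 also: barcoded CIT2-GFP strain pooled with four other GFP strains with rapamycin as positive control; median GFP fluorescence per well over plate mean of DMSO wells so 100% = DMSO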
Settings: 3 h, at 10 µM, stronger effect = higher value
Reported percent response of DMSO control values for a set of compounds
assay_endpoint: percent response of DMSO control (%)

>  <compound>
Cn1c(=O)c2c(ncn2CC(O)CO)n(C)c1=O (centres undefined)

>  <measured_result>
93.9

$$$$
>  <compound>
OC[C@H]1O[C@@H](n2cnc3c(NC4CCCC4)ncnc32)[C@H](O)[C@@H]1O

>  <measured_result>
98.8

$$$$
>  <compound>
CC1(C)Cc2ccccc2C(C(Cc2ccccc2)C(N)=O)=N1 (centres undefined)

>  <measured_result>
106

$$$$
>  <compound>
COc1ccc(C2(CCN=Cc3ccc(N(C)C)cc3)CCOC(C)(C)C2)cc1 (centres undefined)

>  <measured_result>
99.8

$$$$
>  <compound>
COc1cccc(N2CC(O)=C(c3nc4ccccc4c(=O)[nH]3)C2=N)c1

>  <measured_result>
116

$$$$
>  <compound>
CC1(C)CC(=O)C(C(=O)CCCCC(=O)C2C(=O)CC(C)(C)CC2=O)C(=O)C1

>  <measured_result>
112

$$$$
>  <compound>
COc1ccccc1C(=O)c1cc2ccc(O)cc2oc1=O

>  <measured_result>
105

$$$$
>  <compound>
COCCCC/C(=N\OCCN)c1ccc(C(F)(F)F)cc1

>  <measured_result>
98.8

$$$$
>  <compound>
Cc1ccc2c(c1)OC(=O)CC2c1ccccc1 (centres undefined)

>  <measured_result>
96.9

$$$$
>  <compound>
O=c1c2ccccc2nnn1Cc1cccc2ccccc12

>  <measured_result>
103

$$$$
>  <compound>
Cc1cccc(N(C)C(=S)Oc2ccc3ccccc3c2)c1

>  <measured_result>
95.2

$$$$
>  <compound>
COC(=O)c1cc(OC)c(OC)c(OC)c1[N+](=O)[O-]

>  <measured_result>
107

$$$$
>  <compound>
C=CCc1cc(Cl)ccc1OCCOCCN(C)C

>  <measured_result>
108

$$$$
>  <compound>
COCCc1ccc(OCC(O)CNC(C)C)cc1 (centres undefined)

>  <measured_result>
98.9

$$$$
>  <compound>
Nc1nc2c(ncn2COCCO)c(=O)[nH]1

>  <measured_result>
103

$$$$
>  <compound>
CC1CNCCN1S(=O)(=O)c1cccc2cnccc12 (centres undefined)

>  <measured_result>
104

$$$$
>  <compound>
CCN(CC)C1=C(Cl)C(=O)C(Cl)C12OCCO2 (centres undefined)

>  <measured_result>
88.1

$$$$
>  <compound>
CC(=O)Oc1ccc(C(=O)O)cc1OC(C)=O

>  <measured_result>
104

$$$$
>  <compound>
CC(NC(=O)c1ccc(OC2CCN(Cc3ccccn3)CC2)cc1)c1ccccc1 (centres undefined)

>  <measured_result>
105

$$$$
>  <compound>
COc1ccc(CNC(=O)C2CCN(C(=O)[C@@H](CC(C)C)NC(=O)OC(C)(C)C)CC2)cc1

>  <measured_result>
98.8

$$$$
>  <compound>
COc1ccc(NC(=O)C2C(=O)N(CCO)C3(C)CC2c2ccccc2O3)cc1 (centres undefined)

>  <measured_result>
104

$$$$
>  <compound>
COc1cc(OC)cc(C(=O)N[C@@H](CCSC)c2nc3ccccc3[nH]2)c1

>  <measured_result>
105

$$$$
>  <compound>
Cc1cnc(C(=O)NCCc2ccc(S(=O)(=O)NC(=O)NC3CCCCC3)cc2)cn1

>  <measured_result>
110

$$$$
>  <compound>
O=C(/C=C/c1ccco1)N1CCN(c2ccccc2)CC1

>  <measured_result>
107

$$$$
